- System: SF-268
- procedureSummary: Growth inhibition of human SF268 cells at 10 uM after 48 hrs by sulforhodamine B assay
- Assay type: functional
- conditionSet: SF-268, 48 h, read-out: GI
Would you mind telling me the reported inhibition of growth at 10 µM of each entry?
Please state the number and follow it with the unit.

[[record]]
structurenotation = "O=S(=O)(Nc1ccccn1)c1ccc2nc(-c3ccccc3)c(-c3ccccc3)nc2c1"
recordedendpoint = "inhibition of growth at 10 µM"
measvalue = "27.6%"

[[record]]
structurenotation = "NC(=S)NNS(=O)(=O)c1ccc2nc(-c3ccccc3)c(-c3ccccc3)nc2c1"
recordedendpoint = "inhibition of growth at 10 µM"
measvalue = "2.92%"

[[record]]
structurenotation = "O=S(=O)(Nc1ccc(Cl)cc1)c1ccc2nc(-c3ccccc3)c(-c3ccccc3)nc2c1"
recordedendpoint = "inhibition of growth at 10 µM"
measvalue = "14.1%"

[[record]]
structurenotation = "CC(=S)NS(=O)(=O)c1ccc2nc(-c3ccccc3)c(-c3ccccc3)nc2c1"
recordedendpoint = "inhibition of growth at 10 µM"
measvalue = "1.86%"

[[record]]
structurenotation = "O=C(NS(=O)(=O)c1ccc2nc(-c3ccccc3)c(-c3ccccc3)nc2c1)c1ccccc1"
recordedendpoint = "inhibition of growth at 10 µM"
measvalue = "6.89%"


State recorded inhibition of growth at 10 µM for all listed molecules.
1. O=S(=O)(Nc1cccc2ccccc12)c1ccc2nc(-c3ccccc3)c(-c3ccccc3)nc2c1
2. COc1ccccc1NS(=O)(=O)c1ccc2nc(-c3ccccc3)c(-c3ccccc3)nc2c1

Reply:
["2.78%", "23.8%"]

The measurements presented in this section are drawn from ChEMBL document CHEMBL2407075.
